In this section, each of the compounds is paired with its reported log10(EC50).
system: H9; test: Anti-HIV activity against acutely infected H9 lymphocytes. Activity expressed as concentration of compound able to suppress HIV replication by 50%.; format: functional, cell-based; conditions: Homo sapiens
Transform log10 | Measure EC50 | Unit µM

Exam item: Entry `C=C(C)[C@@H]1CC[C@]2(/C=N/O)CC[C@]3(C)[C@H](CC[C@@H]4[C@@]5(C)CC/C(=N\O)C(C)(C)[C@@H]5CC[C@]43C)[C@@H]12` : reported log10(EC50) = ?
Marked response: 0.03

Exam item: Entry C=C(C)[C@@H]1CC[C@]2(CO)CC[C@]3(C)[C@H](CC[C@@H]4[C@@]5(C)CC[C@@H](O)C(C)(C)[C@@H]5CC[C@]43C)[C@@H]12 [3-EPI-BETULIN] : reported log10(EC50) = ?
Marked response: 0.56

Exam item: Entry `CC(C)[C@@H]1CC[C@]2(COC(=O)CCCC(=O)O)CC[C@]3(C)[C@H](CC[C@@H]4[C@@]5(C)CC[C@H](OC(=O)CCCC(=O)O)C(C)(C)[C@@H]5CC[C@]43C)[C@@H]12` : reported log10(EC50) = ?
Marked response: 0.20

Exam item: Entry `C=C(C)[C@@H]1CC[C@]2(COC(=O)CCCC(=O)O)CC[C@]3(C)[C@H](CC[C@@H]4[C@@]5(C)CC[C@H](OC(=O)CCCC(=O)O)C(C)(C)[C@@H]5CC[C@]43C)[C@@H]12` : reported log10(EC50) = ?
Marked response: 0.58

Exam item: Entry `C=C(C)[C@@H]1CC[C@]2(/C=N/OC(=O)CC(C)(C)CC(=O)O)CC[C@]3(C)[C@H](CC[C@@H]4[C@@]5(C)CC/C(=N\OC(=O)CC(C)(C)CC(=O)O)C(C)(C)[C@@H]5CC[C@]43C)[C@@H]12` : reported log10(EC50) = ?
Marked response: 0.66

Exam item: Entry C=C(CO)[C@@H]1CC[C@]2(CO)CC[C@]3(C)[C@H](CC[C@@H]4[C@@]5(C)CC[C@H](O)C(C)(C)[C@@H]5CC[C@]43C)[C@@H]12 [30-HYDROXY-BETULIN] : reported log10(EC50) = ?
Marked response: 1.71

---

tested on: H9; assay: Anti-HIV activity against acutely infected H9 lymphocytes. Activity expressed as concentration of compound able to suppress HIV replication by 50%.; type: functional, cell-based; conditions: Homo sapiens
REPORTED PROPERTY: pEC50
# log scale: pEC50 equals minus log10 of the concentration in mol/L

INSERT INTO measurements (compound, target_system, reported_property, test_result) VALUES
  ('C=C(C)[C@@H]1CC[C@]2(COC(=O)CC3(CC(=O)O)CCCC3)CC[C@]3(C)[C@H](CC[C@@H]4[C@@]5(C)CC=CC(C)(C)[C@@H]5CC[C@]43C)[C@@H]12', 'H9', 'pEC50', 5.07),
  ('C=C(COC(C)=O)[C@@H]1CC[C@]2(COC(C)=O)CC[C@]3(C)[C@H](CC[C@@H]4[C@@]5(C)CC[C@H](OC(C)=O)C(C)(C)[C@@H]5CC[C@]43C)[C@@H]12', 'H9', 'pEC50', 4.99),
  ('CC(CC(=O)O)CC(=O)OC[C@]12CC[C@@H](C(C)C)[C@@H]1[C@H]1CC[C@@H]3[C@@]4(C)CC[C@H](OC(=O)CC(C)CC(=O)O)C(C)(C)[C@@H]4CC[C@@]3(C)[C@]1(C)CC2 (stereo partly drawn)', 'H9', 'pEC50', 7.23),
  ('C=C(C)[C@@H]1CC[C@]2(COC(=O)CC3(CC(=O)O)CCCC3)CC[C@]3(C)[C@H](CC[C@@H]4[C@@]5(C)CCC(=O)C(C)(C)[C@@H]5CC[C@]43C)[C@@H]12', 'H9', 'pEC50', 5.37),
  ('C=C(COC(=O)CC(C)(C)CC(=O)O)[C@@H]1CC[C@]2(COC(=O)CC(C)(C)CC(=O)O)CC[C@]3(C)[C@H](CC[C@@H]4[C@@]5(C)CC[C@H](OC(=O)CC(C)(C)CC(=O)O)C(C)(C)[C@@H]5CC[C@]43C)[C@@H]12', 'H9', 'pEC50', 7.35);

Read the next record carefully.
Exam item: Entry `C=C(C)[C@@H]1CC[C@]2(COC(=O)C34CC5CC(CC(C5)C3)C4)CC[C@]3(C)[C@H](CC[C@@H]4[C@@]5(C)CC[C@H](OC(=O)CC(C)(C)CC(=O)O)C(C)(C)[C@@H]5CC[C@]43C)[C@@H]12` : reported pEC50 = ?
Marked response: 5.53
